System: mAb 35
Assay: Western blot of peptide-IChBD fusion proteins probed with mAb 35
Type: binding, rat
Settings: Table 1, Western blot of FIG. 5, Torpedo 39MIR single mutants
Cut-off 1 fold-change on mAb 35, fold-change in binding relative to Torpedo 39MIR: below means Met, at or above means Not met.

Q: Say whether its mAb 35, fold-change in binding relative to Torpedo 39MIR is strictly beneath 1 fold-change. Entry: SEHETRLVANLLGGGSLRWNPADYGGIKKIHGSLDYTGK (synthetic main immunogenic region (MIR) peptide) [Mutant R79H, Torpedo 39MIR single mutant (R79H)]
Ans: Not met

Q: Say whether its mAb 35, fold-change in binding relative to Torpedo 39MIR is strictly beneath 1 fold-change. Entry: SEHETRLVANLLGGGSLKWNPADYGGIKKIRGSLDYTGK (synthetic main immunogenic region (MIR) peptide) [Mutant R66K, Torpedo 39MIR single mutant (R66K)]
Ans: Met

Q: Say whether its mAb 35, fold-change in binding relative to Torpedo 39MIR is strictly beneath 1 fold-change. Entry: SEHETRLVANLFGGGSLRWNPADYGGIKKIRGSLDYTGK (synthetic main immunogenic region (MIR) peptide) [Mutant L12F, Torpedo 39MIR single mutant (L12F)]
Ans: Not met

Q: Say whether its mAb 35, fold-change in binding relative to Torpedo 39MIR is strictly beneath 1 fold-change. Entry: SEHETRLVAKLLGGGSLRWNPADYGGIKKIRGSLDYTGK (synthetic main immunogenic region (MIR) peptide) [Mutant N10K, Torpedo 39MIR single mutant (N10K)]
Ans: Met

Data origin, for the record: patent US11422132B2
